System: human S1P1 (Homo sapiens) | Read-out: pIC50
For clarity, pIC50 is expressed as the negative log10 of concentration in mol/L.

Q) Request - read-out pIC50 | tested on human S1P1 (Homo sapiens) | compound `CC(C)c1c(-c2nc(-c3ccc(CN4CC(C(=O)O)C4)cc3)no2)noc1-c1ccccn1`
A) 9.74

Q) Any idea what pIC50 came out for `O=C(O)C1CN(Cc2ccc(-c3noc(-c4onc(-c5ccccn5)c4C(F)(F)F)n3)cc2)C1` on human S1P1 (Homo sapiens)?
A) 9.68

Q) pIC50 of `CCCc1c(-c2nc(-c3ccc(CN4CC(C(=O)O)C4)cc3)no2)noc1-c1ccccn1` on human S1P1 (Homo sapiens)?
A) 10.68

Q) Any idea what pIC50 came out for `CCCc1c(-c2ccccn2)noc1-c1nc(-c2ccc(CN3CC(C(=O)O)C3)cc2)no1` on human S1P1 (Homo sapiens)?
A) 10.72

Q) Missing value: pIC50, human S1P1 (Homo sapiens), entry `O=C(O)C1CN(Cc2ccc(-c3noc(-c4noc(-c5ccccn5)c4C(F)(F)F)n3)cc2)C1` . Fill in?
A) 9.41

###

target: S1P1 (membranes from S1P1 transfected CHO cells) (Homo sapiens, UniProt P21453); construct: expressed in transfected cells; host or cells: CHO cells; test: Method B: Receptor [35S] GTPγS SPA Binding Assay, S1P1; assay type: biochemical; conditions: ratio of GTPγS S1P3 EC50 to GTPγS S1P1 EC50, Method B
Sequence (P21453 whole entry): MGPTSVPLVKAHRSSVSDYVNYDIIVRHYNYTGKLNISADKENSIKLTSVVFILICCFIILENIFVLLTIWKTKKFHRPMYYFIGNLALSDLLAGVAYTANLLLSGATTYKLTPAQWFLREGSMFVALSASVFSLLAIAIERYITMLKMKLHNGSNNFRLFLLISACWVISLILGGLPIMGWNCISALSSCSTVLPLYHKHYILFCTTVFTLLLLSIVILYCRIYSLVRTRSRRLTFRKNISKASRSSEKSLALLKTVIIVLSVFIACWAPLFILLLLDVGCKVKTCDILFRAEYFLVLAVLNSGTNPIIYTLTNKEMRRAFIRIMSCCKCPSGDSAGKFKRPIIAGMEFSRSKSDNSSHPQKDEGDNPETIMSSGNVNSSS
attribute-measured: GTPγS S1P3/S1P1 (Method B)
Kindly provide the number alone.

compound	recorded-number
O=C(O)C1CN(Cc2ccc(-c3noc(-c4cc(-c5ccccc5)c(C(F)(F)F)s4)n3)cc2)C1 [Comp. A, reference compound]	78

Turning to the following compound.
Q) I would be grateful if you could share the reported GTPγS S1P3/S1P1 (Method B) for `CCCc1c(-c2nc(-c3ccc(CN4CC(C(=O)O)C4)cc3)no2)noc1-c1ccccn1` .
A) 430

###

Here, each record is paired with measured EC50 data.
biological target: S1P1 (membranes from S1P1/CHO cells) (Homo sapiens); assay: Method A: Receptor [35S] GTPγS Binding Assay, S1P1; settings: Method A; S1P1/CHO membranes
Sequence (P21453 whole entry): as above
Numbers only; they are read as nM.

compound	unit-abbreviation	EC50
O=C(O)C1CN(Cc2ccc(-c3noc(-c4cc(-c5ccccn5)no4)n3)cc2)C1 [Example 8]	nM	450
CCc1c(-c2nc(-c3ccc(CN4CC(C(=O)O)C4)cc3)no2)noc1-c1ccccn1 [Example 5]	nM	3.7
CC(C)c1c(-c2nc(-c3ccc(CN4CC(C(=O)O)C4)cc3)no2)noc1-c1ccccn1 [Example 4]	nM	39

Q) Quick one: EC50 of CCCc1c(-c2nc(-c3ccc(CN4CC(C(=O)O)C4)cc3)no2)noc1-c1ccccn1 [Example 3] ?
A) 0.82

Q) Please report the recorded EC50 for O=C(O)C1CN(Cc2ccc(-c3noc(-c4noc(-c5ccccn5)c4C(F)(F)F)n3)cc2)C1 [Example 2] .
A) 4.5

Q) Reported EC50 for COC(=O)c1c(-c2ccccn2)noc1-c1nc(-c2ccc(CN3CC(C(=O)O)C3)cc2)no1 [Example 7] : what is it?
A) 3.3

Q) Quick one: EC50 of O=C(O)C1CN(Cc2ccc(-c3noc(-c4onc(-c5ccccn5)c4C(F)(F)F)n3)cc2)C1 [Example 1] ?
A) 1.4

###

Some compounds, each annotated with its measured pEC50.
Target: S1P3 (membranes from S1P3 transfected CHO cells) (Homo sapiens, UniProt Q99500)
Sequence (Q99500 whole entry): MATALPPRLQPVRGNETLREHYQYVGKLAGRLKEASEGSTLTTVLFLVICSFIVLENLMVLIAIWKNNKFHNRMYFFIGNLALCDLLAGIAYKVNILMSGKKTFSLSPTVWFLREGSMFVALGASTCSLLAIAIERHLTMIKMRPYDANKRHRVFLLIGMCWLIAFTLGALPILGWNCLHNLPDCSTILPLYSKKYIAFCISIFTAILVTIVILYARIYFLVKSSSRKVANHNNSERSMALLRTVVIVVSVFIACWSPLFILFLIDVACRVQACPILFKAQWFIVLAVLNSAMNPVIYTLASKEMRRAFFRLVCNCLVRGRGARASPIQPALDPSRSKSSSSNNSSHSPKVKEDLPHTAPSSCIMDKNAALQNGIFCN
Test: Method B: Receptor [35S] GTPγS SPA Binding Assay, S1P3
Procedure: Method B: Receptor [35S] GTPγS SPA Binding Assays Membranes prepared from S1P1 or S1P3 transfected CHO cells ([…]) were incubated in 96-well white plates (CORNING® 3693) with test compounds diluted in DMSO, in 50 μl of reaction mixture containing 7.5 μl WGA-PVT beads (20 mg/ml), and 5 μM GDP, 20 mM HEPES pH 7.4, 100 mM NaCl, 1 mM EDTA, 5 mM MgCl2, 10 μg/ml saponin, 0.1% BSA, and 1 μM leupeptin. […] Data was analyzed using the four parameter logistic equation in Excel. […]
Scale: pEC50 equals -log10([C]), with [C] in mol/L.

Q) For the compound CCCc1c(-c2ccccn2)noc1-c1nc(-c2ccc(CN3CC(C(=O)O)C3)cc2)no1 [Example 6] , what pEC50 is on record?
A) 6.37

Q) Which measured pEC50 value corresponds to O=C(O)C1CN(Cc2ccc(-c3noc(-c4noc(-c5ccccn5)c4C(F)(F)F)n3)cc2)C1 [Example 2] ?
A) 5.36

Q) Any idea what pEC50 was measured for CCCc1c(-c2nc(-c3ccc(CN4CC(C(=O)O)C4)cc3)no2)noc1-c1ccccn1 [Example 3] ?
A) 6.55

Q) Look up pEC50: O=C(O)C1CN(Cc2ccc(-c3noc(-c4onc(-c5ccccn5)c4C(F)(F)F)n3)cc2)C1 [Example 1]
A) 5.21

###

Each item that follows carries a reported pEC50.
molecular target: S1P1 (membranes from S1P1 transfected CHO cells) (Homo sapiens, UniProt P21453); assay: Method B: Receptor [35S] GTPγS SPA Binding Assay, S1P1; details: Method B SPA; S1P1 transfected CHO membranes
Give only the number. pEC50 is defined as minus log10 of concentration in molar units.

Some molecules with known pEC50 results, for comparison:
smiles	recorded-number
O=C(O)C1CN(Cc2ccc(-c3noc(-c4onc(-c5ccccn5)c4C(F)(F)F)n3)cc2)C1	9.77
CCCc1c(-c2ccccn2)noc1-c1nc(-c2ccc(CN3CC(C(=O)O)C3)cc2)no1	10.09
CC(C)c1c(-c2nc(-c3ccc(CN4CC(C(=O)O)C4)cc3)no2)noc1-c1ccccn1	9.00

--- query ---
Q) Can you share its pEC50? I mean this molecule: `O=C(O)C1CN(Cc2ccc(-c3noc(-c4cc(-c5ccccn5)no4)n3)cc2)C1`
A) 7.17

###

molecular target: S1P1 (membranes from S1P1 transfected CHO cells) (Homo sapiens, UniProt P21453); construct: expressed in transfected cells; host or cells: CHO cells; assay: Method B: Receptor [35S] GTPγS SPA Binding Assay, S1P1; format: biochemical; conditions: ratio of GTPγS S1P3 EC50 to GTPγS S1P1 EC50, Method B
Attribute: GTPγS S1P3/S1P1 (Method B)

Examples from the recorded data:
smiles	GTPγS S1P3/S1P1 (Method B)
O=C(O)C1CN(Cc2ccc(-c3noc(-c4noc(-c5ccccn5)c4C(F)(F)F)n3)cc2)C1	13,000
O=C(O)C1CN(Cc2ccc(-c3noc(-c4onc(-c5ccccn5)c4C(F)(F)F)n3)cc2)C1	37,000

Q) Sample `CCCc1c(-c2ccccn2)noc1-c1nc(-c2ccc(CN3CC(C(=O)O)C3)cc2)no1` — what was its GTPγS S1P3/S1P1 (Method B)?
A) 5,200
